The values you see were collected from patent US10633570B2.

Test: Anti-ice nucleation active performance (supercooling acceleration), droplet-freezing method of Vali, with silver iodide
Assay type: physicochemical
Settings: purine base aqueous solution 1.0 mg/mL, 100 μL mixed with 900 μL silver iodide 1.0 mg/mL; cooling 1.0° C./min; average of three tests
Tick YES if Anti-ice nucleation activity level (ΔT50 = BlankT50 − SampleT50) is 2 °C or greater. Tick NO if Anti-ice nucleation activity level (ΔT50 = BlankT50 − SampleT50) is less than 2 °C.

Molecule | Category
Cn1cnc2c1c(=O)[nH]c(=O)n2C [Example 4, Theobromine] | NO
Nc1nc2nc[nH]c2c(=O)[nH]1 [Example 2, Guanine] | NO
Cn1c(=O)c2c(ncn2C)n(C)c1=O [Example 5, Caffeine] | NO
Nc1ncnc2nc[nH]c12 [Example 1, adenine] | YES
O=c1[nH]cnc2nc[nH]c12 [Example 3, Hypoxanthine] | YES
O=c1[nH]c(=O)c2[nH]c(=O)[nH]c2[nH]1 [Example 6, Uric acid] | NO
